Origin of measurements: patent US20160040149A1

measurement.protocol: Saturation mutagenesis of SEQ ID NO:109: dicamba decarboxylation activity of point mutants (CO2 released), fold of backbone (Tables 7, 8, Megatable 1)
measurement.context: decarboxylation activity (CO2 released) of point mutant vs unmutated backbone protein; backbone SEQ ID NO: 109
property.measured: Fold Activity (fold)
Write down the numeric answer in fold and omit the unit.

Enquiry: Indicate its recorded Fold Activity; the molecule in question is 18 (protein, listed as Legionella pneumophila) MAIVDFETHFITEACIDYLTQRQEVPKLVPELNGAYTMCFTPDVSLFHTSALMEELLSLNEQRLAIMDQAGVTIQVLSLTTINGIDSCPGDENKSTALAREVNDQLYSAIQKHPERFKGFASISPYDVKEGVKELERAISQLGFVGWLTHSNFGQDNYLDDKIYWPLLEAAESLNIPIYLHPNVPIMREFGKYGFALGGSALGFEFDTALCLMRMILGGVFDAFPKLKIMLGHLGETMPFLMERLDHLYRIPDLKPYRPSIQRIPSEVLRQNVYITTSGRFFVPALRYVLEVMGEDRVLFASDYPMESLLDATRFIQDSDLSNQTKQKIFSINAKNLNLI
Return: 1.2
